Molecular target: UniProt:P41597
Sequence (P41597 whole entry, looked up): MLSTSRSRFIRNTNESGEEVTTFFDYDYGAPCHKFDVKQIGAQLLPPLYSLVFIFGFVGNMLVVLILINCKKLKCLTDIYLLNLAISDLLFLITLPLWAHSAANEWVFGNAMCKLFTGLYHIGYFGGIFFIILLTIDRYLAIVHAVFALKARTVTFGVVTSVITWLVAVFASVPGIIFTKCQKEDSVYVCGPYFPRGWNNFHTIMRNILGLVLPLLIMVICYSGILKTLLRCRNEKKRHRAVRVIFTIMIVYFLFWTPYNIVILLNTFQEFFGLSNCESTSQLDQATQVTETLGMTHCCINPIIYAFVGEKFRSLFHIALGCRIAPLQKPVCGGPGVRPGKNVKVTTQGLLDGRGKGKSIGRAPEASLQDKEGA
Test: Displacement of [125]MCP1 from CCR2 in human PBMCs at 10 uM
Output MET for Activity not less than 9%; output NOT MET otherwise.

smiles-entry: Cc1ccc(CNC[C@@H](NC(=O)CNC(=O)c2cccc(C(F)(F)F)c2)C(=O)O)c(C)c1
target-of-assay: UniProt:P41597
class-label: MET
--
smiles-entry: Cc1ccc(CNC[C@H](C)NC(=O)CNC(=O)c2cccc(C(F)(F)F)c2)c(C)c1
target-of-assay: UniProt:P41597
class-label: MET
--
smiles-entry: CCNC(=O)[C@H](CNCc1ccc(C)cc1C)NC(=O)CCC(=O)c1cccc(C(F)(F)F)c1
target-of-assay: UniProt:P41597
class-label: NOT MET
--
smiles-entry: Cc1ccc(CNC[C@H](NC(=O)[C@@H](C)NC(=O)c2cccc(C(F)(F)F)c2)C(N)=O)c(C)c1
target-of-assay: UniProt:P41597
class-label: MET
--
smiles-entry: CCNC(=O)[C@@H](NC(=O)CNC(=O)c1cccc(C(F)(F)F)c1)[C@H](C)NCc1ccc(C)cc1C
target-of-assay: UniProt:P41597
class-label: NOT MET
--
smiles-entry: Cc1ccc(CNC[C@@H](NC(=O)CNC(=O)c2cccc(C(F)(F)F)c2)C(C)C)c(C)c1
target-of-assay: UniProt:P41597
class-label: MET
